The entries below are paired with their reported Bliss excess.
- Tested on: SW1990 (Pancreatic Carcinoma);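 also: after 72 h of two-drug dosing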
- test: Bliss excess, mean over the matrix (fraction); higher = more synergy

compound	Bliss excess
CCc1c2c(nc3ccc(O)cc13)-c1cc3c(c(=O)n1C2)COC(=O)[C@]3(O)CC [SN-38] + O=C(c1cc(Cc2n[nH]c(=O)c3ccccc23)ccc1F)N1CCN(C(=O)C2CC2)CC1 [Olaparib] (first compound max 0.3 µM, 7x7, partner max 10 µM)	0.0001

*Q* Using known records, supply Bliss excess for Cc1cc2ncnn2cc1Nc1ncc2c(n1)n(C1CCOCC1)c(=O)n2C [AZD7648] + C=CCn1c(=O)c2cnc(Nc3ccc(N4CCN(C)CC4)cc3)nc2n1-c1cccc(C(C)(C)O)n1 [AZD1775] (first compound max 10 µM, partner max 1 µM)
*A* -0.0255

*Q* Using known records, supply Bliss excess for Cc1c2c(nn1C)CSCc1cc(n(C)n1)CSc1cc(c3ccccc3c1)OCCCc1c(C(=O)O)n(C)c3c-2c(Cl)ccc13 [AZD5991] + Nc1ccn([C@@H]2O[C@H](CO)[C@@H](O)C2(F)F)c(=O)n1 [Gemcitabine] (first compound max 1 µM, 7x7, partner max 0.3 µM)
*A* 0.0278

*Q* Using known records, supply Bliss excess for CC1(C)CCC(CN2CCN(c3ccc(C(=O)NS(=O)(=O)c4ccc(NCC5CCOCC5)c([N+](=O)[O-])c4)c(Oc4cnc5[nH]ccc5c4)c3)CC2)=C(c2ccc(Cl)cc2)C1 [Venetoclax] + C=CCn1c(=O)c2cnc(Nc3ccc(N4CCN(C)CC4)cc3)nc2n1-c1cccc(C(C)(C)O)n1 [AZD1775] (first compound max 1 µM, partner max 1 µM)
*A* 0.0206

*Q* Using known records, supply Bliss excess for CS(=O)(=O)CCNCc1ccc(-c2ccc3ncnc(Nc4ccc(OCc5cccc(F)c5)c(Cl)c4)c3c2)o1 [Lapatinib] + C[C@@H](Oc1cc(-c2cnn(C3CCNCC3)c2)cnc1N)c1c(Cl)ccc(F)c1Cl [Crizotinib] (first compound max 10 µM, 7x7, partner max 10 µM)
*A* -0.0042

*Q* Using known records, supply Bliss excess for COc1nnc2ccc(N3CCC(c4ccc(OCCN5CCN(C)C(=O)[C@H]5C)cc4)CC3)nn12 [AZD5153] + CCN(CCO)CCCOc1ccc2c(Nc3cc(CC(=O)Nc4cccc(F)c4)[nH]n3)ncnc2c1 [AZD2811] (first compound max 1 µM, 7x7, partner max 1 µM)
*A* -0.0477

*Q* Using known records, supply Bliss excess for CC1(C)CCC(CN2CCN(c3ccc(C(=O)NS(=O)(=O)c4ccc(NCC5CCOCC5)c([N+](=O)[O-])c4)c(Oc4cnc5[nH]ccc5c4)c3)CC2)=C(c2ccc(Cl)cc2)C1 [Venetoclax] + Cn1cnc2c(F)c(Nc3ccc(Br)cc3Cl)c(C(=O)NOCCO)cc21 [Selumetinib] (first compound max 1 µM, 7x7, partner max 3 µM)
*A* -0.0656

###

The entries below are paired with their reported combination Emax.
- Tested on: NCI-H2369 (Mesothelioma)
- test: combination Emax (second highest fraction inhibited in the dose matrix, 72 h); higher = more inhibition; extreme values may be limits of the assay
Give the figure by itself; no unit, no explanation.

Worked cases, combination Emax given:
compound	measure_name	value_measured
CC1(C)CCC(CN2CCN(c3ccc(C(=O)NS(=O)(=O)c4ccc(NCC5CCOCC5)c([N+](=O)[O-])c4)c(Oc4cnc5[nH]ccc5c4)c3)CC2)=C(c2ccc(Cl)cc2)C1 [Venetoclax] + CCN(CCO)CCCOc1ccc2c(Nc3cc(CC(=O)Nc4cccc(F)c4)[nH]n3)ncnc2c1 [AZD2811] (first compound max 1 µM, 7x7, partner max 1 µM)	combination Emax	0.173
NC1(C(=O)N[C@@H](CCO)c2ccc(Cl)cc2)CCN(c2ncnc3[nH]ccc23)CC1 [Capivasertib] + CC(=O)c1c(C)c2cnc(Nc3ccc(N4CCNCC4)cn3)nc2n(C2CCCC2)c1=O [Palbociclib] (first compound max 10 µM, 7x7, partner max 10 µM)	combination Emax	0.259

*Q* Using known records, supply combination Emax for Cn1cnc2c(F)c(Nc3ccc(Br)cc3Cl)c(C(=O)NOCCO)cc21 [Selumetinib] + C=CCn1c(=O)c2cnc(Nc3ccc(N4CCN(C)CC4)cc3)nc2n1-c1cccc(C(C)(C)O)n1 [AZD1775] (first compound max 10 µM, partner max 1 µM)
*A* 0.276
